A collection of compounds and their measured Rmax
tgt: ACE2 (Homo sapiens)
Sequence (Q9BYF1 18-740): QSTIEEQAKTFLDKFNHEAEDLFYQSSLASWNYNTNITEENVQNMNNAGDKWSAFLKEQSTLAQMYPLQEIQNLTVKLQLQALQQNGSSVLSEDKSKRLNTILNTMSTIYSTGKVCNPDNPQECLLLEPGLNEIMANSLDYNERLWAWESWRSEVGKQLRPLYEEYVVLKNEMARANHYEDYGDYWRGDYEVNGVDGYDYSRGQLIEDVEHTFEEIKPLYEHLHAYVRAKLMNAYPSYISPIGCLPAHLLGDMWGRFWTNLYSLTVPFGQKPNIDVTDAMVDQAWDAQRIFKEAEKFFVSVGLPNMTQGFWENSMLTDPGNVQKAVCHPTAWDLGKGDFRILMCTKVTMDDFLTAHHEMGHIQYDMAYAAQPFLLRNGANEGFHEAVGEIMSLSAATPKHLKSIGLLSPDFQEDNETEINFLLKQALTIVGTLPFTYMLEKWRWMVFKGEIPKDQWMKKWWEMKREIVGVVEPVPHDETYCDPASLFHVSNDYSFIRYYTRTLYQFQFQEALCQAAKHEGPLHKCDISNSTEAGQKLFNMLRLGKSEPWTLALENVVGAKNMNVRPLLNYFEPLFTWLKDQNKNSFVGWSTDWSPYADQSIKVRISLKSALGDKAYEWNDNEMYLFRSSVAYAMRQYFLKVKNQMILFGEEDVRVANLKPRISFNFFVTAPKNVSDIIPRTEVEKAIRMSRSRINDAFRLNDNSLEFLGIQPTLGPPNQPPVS
protocol.notes: SPR analysis of affinity to ACE2 recombinant protein
Assay type: binding
test.parameters: SPR fit
readout.name: Rmax

[
  {
    "substance.smiles": "O=C(/C=C/c1ccc(O)c(O)c1)O[C@@H]1C[C@@](O)(C(=O)O)C[C@@H](O)[C@@H]1O",
    "readout.name": "Rmax",
    "assay.result": "6.894 RU"
  },
  {
    "substance.smiles": "COc1cc(O)c2c(c1)C(=O)c1cc(C)cc(O)c1C2=O",
    "readout.name": "Rmax",
    "assay.result": "18.390 RU"
  },
  {
    "substance.smiles": "N#C[C@H](O[C@@H]1O[C@H](CO[C@@H]2O[C@H](CO)[C@@H](O)[C@H](O)[C@H]2O)[C@@H](O)[C@H](O)[C@H]1O)c1ccccc1",
    "readout.name": "Rmax",
    "assay.result": "6.856 RU"
  }
]

====

tgt: UniProt:Q9BYF1
protocol.notes: SPR analysis of affinity to ACE2 recombinant protein
Assay type: binding
test.parameters: SPR fit

[
  {
    "molecule": "O=C(O)c1cc(O)c2c(c1)C(=O)c1cccc(O)c1C2=O",
    "Rmax": "13.200 RU"
  },
  {
    "molecule": "C[C@@H]1O[C@@H](OC[C@H]2O[C@@H](OCCc3ccc(O)c(O)c3)[C@H](O)[C@@H](OC(=O)/C=C/c3ccc(O)c(O)c3)[C@@H]2O)[C@H](O)[C@H](O)[C@H]1O [Forsythoside I (104), Forsythoside I]",
    "Rmax": "19.020 RU"
  },
  {
    "molecule": "N#C[C@H](O[C@@H]1O[C@H](CO)[C@@H](O)[C@H](O)[C@H]1O)c1ccccc1",
    "Rmax": "3.814 RU"
  },
  {
    "molecule": "CC1(C)[C@@H](O[C@H]2O[C@H](C(=O)O)[C@@H](O)[C@H](O)[C@H]2O[C@@H]2O[C@H](C(=O)O)[C@@H](O)[C@H](O)[C@H]2O)CC[C@]2(C)[C@H]3C(=O)C=C4[C@@H]5C[C@@](C)(C(=O)O)CC[C@]5(C)CC[C@@]4(C)[C@]3(C)CC[C@@H]12",
    "Rmax": "9.614 RU"
  },
  {
    "molecule": "O=c1c(O)c(-c2ccc(O)c(O)c2)oc2cc(O)cc(O)c12",
    "Rmax": "12.780 RU"
  }
]

====

tgt: UniProtKB Q9BYF1
protocol.notes: SPR analysis of affinity to ACE2 recombinant protein
Assay type: binding
test.parameters: SPR fit
Rmax values by entry
readout.name: Rmax (RU)

[
  {
    "molecule": "Cc1cc(O[C@@H]2OC(CO)[C@@H](O)C(O)C2O)c2c(c1)C(=O)c1cc(O)cc(O)c1C2=O (stereo partly drawn) [Emodin 8-O-β-D-glucoside (195), Emodin 8-O-β-D-glucoside]",
    "readout.name": "Rmax",
    "assay.result": 16.930
  },
  {
    "molecule": "C[C@@H]1O[C@@H](OC[C@H]2O[C@@H](OCCc3ccc(O)c(O)c3)[C@H](O)[C@@H](O)[C@@H]2OC(=O)/C=C/c2ccc(O)c(O)c2)[C@H](O)[C@H](O)[C@H]1O [Forsythoside A (128), Forsythoside A]",
    "readout.name": "Rmax",
    "assay.result": 21.490
  },
  {
    "molecule": "C[C@@H]1O[C@@H](OC[C@H]2O[C@@H](Oc3c(-c4ccc(O)c(O)c4)oc4cc(O)cc(O)c4c3=O)[C@H](O)[C@@H](O)[C@@H]2O)[C@H](O)[C@H](O)[C@H]1O",
    "readout.name": "Rmax",
    "assay.result": 12.770
  },
  {
    "molecule": "O=C1c2cccc(O)c2C(=O)c2c(O)cc(CO)cc21",
    "readout.name": "Rmax",
    "assay.result": 16.120
  }
]
